Cited source: patent US9249163B2

target: Human recombinant PDE10A2 (Homo sapiens (Human)); assay: In vitro hPDE10a (human recombinant PDE10A2, scintillation proximity assay); type: biochemical; conditions: human recombinant PDE10A2, 60 nM cAMP, 60 min at room temperature; read-out: hPDE10a2 IC50
Sequence (Q9Y233 267-1055): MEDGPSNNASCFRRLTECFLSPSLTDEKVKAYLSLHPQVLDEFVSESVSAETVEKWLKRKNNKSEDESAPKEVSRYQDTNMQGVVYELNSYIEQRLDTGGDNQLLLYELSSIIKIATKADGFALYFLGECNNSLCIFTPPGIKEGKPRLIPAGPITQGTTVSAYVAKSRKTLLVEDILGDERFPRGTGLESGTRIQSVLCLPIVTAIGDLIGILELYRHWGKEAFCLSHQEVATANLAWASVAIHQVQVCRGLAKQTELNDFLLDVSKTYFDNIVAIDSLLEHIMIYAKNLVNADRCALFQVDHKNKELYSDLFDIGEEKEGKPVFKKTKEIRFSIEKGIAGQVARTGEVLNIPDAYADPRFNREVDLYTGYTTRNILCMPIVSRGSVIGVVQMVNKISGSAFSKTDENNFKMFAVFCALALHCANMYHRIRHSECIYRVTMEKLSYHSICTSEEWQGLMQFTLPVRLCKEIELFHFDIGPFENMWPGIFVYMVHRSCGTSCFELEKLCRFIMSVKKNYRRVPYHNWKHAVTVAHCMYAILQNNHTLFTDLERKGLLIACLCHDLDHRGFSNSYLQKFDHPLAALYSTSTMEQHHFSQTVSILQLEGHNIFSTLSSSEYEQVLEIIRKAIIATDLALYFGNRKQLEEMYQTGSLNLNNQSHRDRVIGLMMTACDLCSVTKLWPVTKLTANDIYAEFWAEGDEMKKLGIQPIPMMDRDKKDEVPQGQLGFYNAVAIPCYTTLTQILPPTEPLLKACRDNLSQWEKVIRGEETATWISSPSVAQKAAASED
Where a name gives a salt, the structure may show the parent alone.
Output MET for records whose IC50 is lower than 3 nM, NOT MET for records at or above 3 nM.

compound	group
Cc1ccc(-c2cnc(N3CCOCC3)c3nc(COc4ccc5ccccc5n4)cn23)cn1	NOT MET
C(=C\c1cn2c(-c3ccc(N4CCNCC4)nc3)cnc(N3CCOCC3)c2n1)/c1ccc2ccccc2n1 [Cpd 105, trifluoroacetic acid salt]	NOT MET
COc1cc(-c2ncc(-c3ccc(N4CCNCC4)nc3)n3cc(COc4ccc5ccccc5n4)nc23)ccn1	NOT MET
c1ccc2nc(OCc3cn4c(-c5ccc(N6CCNCC6)nc5)cnc(-c5ccncc5)c4n3)ccc2c1 [Cpd 120, trifluoroacetic acid salt]	NOT MET
O=C1NS(=O)(=O)c2ccc(-c3cnc(N4CCOCC4)c4nc(/C=C/c5ccc6ccccc6n5)cn34)cc21	MET

Please check: IC50 for CS(=O)(=O)Nc1ccc(-c2cnc(N3CCOCC3)c3nc(COc4ccc5ccccc5n4)cn23)cn1 , strictly under 3 nM or not?
MET

====

Reported pIC50 values for a set of compounds
molecular target: Human recombinant PDE10A2 (Homo sapiens (Human)); test: In vitro hPDE10a (human recombinant PDE10A2, scintillation proximity assay); conditions: human recombinant PDE10A2, 60 nM cAMP, 60 min at room temperature; read-out: hPDE10a2 IC50
Where a name gives a salt, the structure may show the parent alone.
Please express pIC50 as -log10 of the molar concentration.

compound	measurement.target	result.value
Cn1nc(-c2ccc(-c3cnc(N4CCOCC4)c4nc(CCc5ccc6ccccc6n5)cn34)cc2)[nH]c1=O	Human recombinant PDE10A2 (Homo sapiens (Human))	7.68

The compound identified as O=C(O)CNC(=O)c1ccc(-c2cnc(N3CCOCC3)c3nc(CCc4ccc5ccccc5n4)cn23)cc1 registered its pIC50 at 8.15

For reference, reported pIC50 for CS(=O)(=O)NC(=O)c1ccc(-c2cnc(N3CCOCC3)c3nc(COc4ccc5ccccc5n4)cn23)cn1 stands at 8.70

So, c1cncc(-c2cnc(N3CCOCC3)c3nc(COc4ccc5ccccc5n4)cn23)c1 ? Its pIC50 was 7.51

# pIC50 (compound: O=C(O)CCNC(=O)c1ccc(-c2cnc(N3CCOCC3)c3nc(/C=C/c4ccc5ccccc5n4)cn23)cc1 ) is 8.30

Reported pIC50 ( CC(=O)NS(=O)(=O)c1ccc(-c2cnc(N3CCOCC3)c3nc(/C=C/c4ccc5ccccc5n4)cn23)cc1 [Cpd 69, trifluoroacetic acid salt] ) = 8.40

Recorded pIC50 (compound CS(=O)(=O)NC(=O)c1ccc(-c2cnc(N3CCOCC3)c3nc(CSc4ccc5ccccc5n4)cn23)cc1 ): 8.70

Input O=C(O)c1ccc(-c2cnc(N3CCOCC3)c3nc(C#Cc4ccccn4)cn23)cc1 . Output pIC50: 7.92

Clc1c(N2CC(c3ccc4ccccc4n3)C2)nc2c(N3CCOCC3)ncc(-c3ccc(N4CCNCC4)nc3)n12 [Cpd 132, trifluoroacetic acid salt] has a reported pIC50 of 5.79

Lab note: measured pIC50 of c1ccc2nc(SCc3cn4c(-c5ccc(N6CCNCC6)nc5)cnc(N5CCOCC5)c4n3)ccc2c1 [Cpd 98, trifluoroacetic acid salt] was 7.24

Field pIC50 (entry c1ccc2nc(OCc3cn4c(-c5ccc(C6CCNCC6)nc5)cnc(N5CCOCC5)c4n3)ccc2c1 [Cpd 106, trifluoroacetic acid salt] ) reads 7.05

Form: compound = CC(C)[C@H](NC(=O)c1ccc(-c2cnc(N3CCOCC3)c3nc(CCc4ccc5ccccc5n4)cn23)cc1)C(=O)O [Cpd 34, trifluoroacetic acid salt] ; pIC50 = 8.30

Please fill in: pIC50 reported for C(=C\c1cn2c(-c3ccc(N4CCNCC4)nc3)cnc(C3CCOCC3)c2n1)/c1ccc2ccccc2n1 [Cpd 80, trifluoroacetic acid salt] = 6.21

# pIC50 of O=c1[nH]c(-c2ccc(-c3cnc(N4CCOCC4)c4nc(/C=C/c5ccc6ccccc6n5)cn34)cn2)no1 = 8.30

Entry under test: COc1cccc(/C=C/c2cn3c(-c4ccc(C(=O)O)cc4)cnc(N4CCOCC4)c3n2)n1 . Its pIC50 was 8.22

====

target: Rat recombinant PDE10a (rPDE10a) (Rattus norvegicus (Rat), UniProt Q9QYJ6); experiment: In vitro assay PDE10a (rat recombinant PDE10a, SPA); settings: 60 nM cAMP, 60 min at rt, read-out: rPDE10a2 IC50
Sequence (Q9QYJ6 whole entry): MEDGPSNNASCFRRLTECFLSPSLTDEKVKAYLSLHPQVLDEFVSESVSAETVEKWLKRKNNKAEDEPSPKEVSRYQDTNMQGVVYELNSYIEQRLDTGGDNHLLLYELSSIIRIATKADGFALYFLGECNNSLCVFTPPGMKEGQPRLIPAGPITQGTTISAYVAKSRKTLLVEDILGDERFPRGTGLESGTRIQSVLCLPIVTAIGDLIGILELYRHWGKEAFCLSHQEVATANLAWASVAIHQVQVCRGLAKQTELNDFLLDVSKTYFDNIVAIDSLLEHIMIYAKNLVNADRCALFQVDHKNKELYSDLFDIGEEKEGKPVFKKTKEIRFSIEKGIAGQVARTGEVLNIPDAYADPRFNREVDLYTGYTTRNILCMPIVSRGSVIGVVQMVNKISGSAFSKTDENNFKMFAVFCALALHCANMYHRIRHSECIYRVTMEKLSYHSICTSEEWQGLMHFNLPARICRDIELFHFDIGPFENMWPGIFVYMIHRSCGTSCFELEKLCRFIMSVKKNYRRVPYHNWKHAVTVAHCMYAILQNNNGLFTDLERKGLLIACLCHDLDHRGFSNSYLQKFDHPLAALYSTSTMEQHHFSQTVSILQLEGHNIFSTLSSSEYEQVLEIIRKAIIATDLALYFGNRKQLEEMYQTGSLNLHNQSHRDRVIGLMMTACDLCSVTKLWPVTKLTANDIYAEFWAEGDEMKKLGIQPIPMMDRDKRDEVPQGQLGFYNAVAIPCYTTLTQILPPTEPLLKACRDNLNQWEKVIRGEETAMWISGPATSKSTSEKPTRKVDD
Binned IC50; ranges: Low: < 7 nM; Mid: ≥ 7 nM and < 30 nM; High: ≥ 30 nM

State the band of O=c1[nH]ncn1-c1ccc(-c2cnc(N3CCOCC3)c3nc(/C=C/c4ccc5ccccc5n4)cn23)cc1
High

Lab log: COCCOCCOc1ccc(-c2cnc(N3CCOCC3)c3nc(CCc4ccc5ccccc5n4)cn23)cc1 — assign IC50 category
High

Lab log: O=C(O)CNC(=O)c1ccc(-c2cnc(N3CCOCC3)c3nc(CCc4ccc5ccccc5n4)cn23)cc1 — assign IC50 category
Low

====

assay: PDE10a-perfused brain permeability study (plasma and brain concentrations); conditions: male, Sprague-Dawley, rat, brain/plasma
measured.quantity: Kp at 2 h
Provide a numeric answer; units are not to be included.

compound	Kp at 2 h
O=c1[nH]c(-c2ccc(-c3cnc(N4CCOCC4)c4nc(CCc5ccc6ccccc6n5)cn34)cn2)no1 [Cpd 74]	0

Quick note, Kp at 2 h for Cc1ccc(-c2cnc(N3CCOCC3)c3nc(COc4ccc5ccccc5n4)cn23)cn1 [Cpd 128] landed at 0.58

Form field Kp at 2 h, entry c1ccc2nc(OCc3cn4c(-c5ccc(-c6nnn[nH]6)nc5)cnc(N5CCOCC5)c4n3)ccc2c1 [Cpd 97] : 0

====

This section presents compounds with their documented pIC50 values.
Target: Rat recombinant PDE10a (rPDE10a) (Rattus norvegicus (Rat), UniProt Q9QYJ6)
Experiment: In vitro assay PDE10a (rat recombinant PDE10a, SPA)
Settings: 60 nM cAMP, 60 min at rt, read-out: rPDE10a2 IC50
Method: Rat recombinant PDE10a (rPDE10a) was expressed in Sf9 cells using a recombinant rPDE10a baculovirus construct. Cells were harvested after 48 h of infection and the rPDE10a protein was purified by metal chelate chromatography on Ni-sepharose 6FF. […] After sedimentation of the beads during 30 min the radioactivity was measured in a Perkin Elmer Topcount scintillation counter and results were expressed as cpm. […]
Where a name gives a salt, the structure may show the parent alone.
FYI, pIC50 means -log10 of a concentration in mol per litre.

compound	measurement.target	pIC50
CC(C)[C@H](NC(=O)c1ccc(-c2cnc(N3CCOCC3)c3nc(/C=C/c4ccc5ccccc5n4)cn23)cc1)C(=O)O [Cpd 44, trifluoroacetic acid salt]	Rat recombinant PDE10a (rPDE10a) (Rattus norvegicus (Rat), UniProt Q9QYJ6)	8.05

pIC50 for CS(=O)(=O)NC(=O)c1ccc(-c2cnc(N3CCOCC3)c3nc(COc4ccc5ccccc5n4)cn23)cn1 [Cpd 76] is 8.52

Form: compound = CS(=O)(=O)NC(=O)c1ccc(-c2cnc(N3CCOCC3)c3nc(CCc4ccc5ccccc5n4)cn23)cc1 [Cpd 61] ; pIC50 = 8.22

For this compound ( c1cncc(-c2cnc(N3CCOCC3)c3nc(COc4ccc5ccccc5n4)cn23)c1 [Cpd 129] ), measured pIC50 is 7.57

Lab note: C(=C\c1ncc2ccccc2n1)/c1cn2c(-c3ccc(N4CCNCC4)nc3)cnc(N3CCOCC3)c2n1 [Cpd 104] gave pIC50 of 7.17

====

assay: PDE10a-perfused brain permeability study (plasma and brain concentrations); settings: male, Sprague-Dawley, rat, plasma
Structures can show the parent of a compound that is named as a salt.
Listed next: entries and their corresponding concentration at 2 h.
The reply should be a number in ng/mL, with the unit left off.

molecule	result.value
CS(=O)(=O)NC(=O)c1ccc(-c2cnc(N3CCOCC3)c3nc(COc4ccc5ccccc5n4)cn23)cn1	115
O=C(O)CNc1ccc(-c2cnc(N3CCOCC3)c3nc(COc4ccc5ccccc5n4)cn23)cn1 [Cpd 107, trifluoroacetic acid salt]	22.5
C(=C\c1cn2c(-c3cnc4nc[nH]c4c3)cnc(N3CCOCC3)c2n1)/c1ccc2ccccc2n1	98
c1ccc2nc(OCc3cn4c(-c5cnc(N6CCNCC6)nc5)cnc(N5CCOCC5)c4n3)ccc2c1	55.1

Next molecule, please.
get_value(item= c1ccc2nc(OCc3cn4c(-c5ccc(N6CCOCC6)nc5)cnc(N5CCOCC5)c4n3)ccc2c1 , readout=concentration at 2 h) returns 28.1

====

target: Rat recombinant PDE10a (rPDE10a) (Rattus norvegicus (Rat)); assay: In vitro assay PDE10a (rat recombinant PDE10a, SPA); details: 60 nM cAMP, 60 min at rt, read-out: rPDE10a2 IC50
Where a name gives a salt, the structure may show the parent alone.
Reported IC50 values for a set of compounds

These solved cases illustrate the format of a correct answer.
compound	measurement.target	IC50
O=C(O)c1ccc(-c2cnc(N3CCOCC3)c3nc(C#Cc4nc5ccccc5s4)cn23)cc1 [Cpd 11]	Rat recombinant PDE10a (rPDE10a) (Rattus norvegicus (Rat))	9 nM
c1ccc2nc(OCc3cn4c(-c5ccc(N6CCNCC6)nc5)cnc(-c5ccc6nc[nH]c6c5)c4n3)ccc2c1 [Cpd 119, trifluoroacetic acid salt]	Rat recombinant PDE10a (rPDE10a) (Rattus norvegicus (Rat))	26 nM
CC(=O)N1CCN(c2ncc(-c3ccc(N4CCNCC4)nc3)n3cc(COc4ccc5ccccc5n4)nc23)CC1 [Cpd 113]	Rat recombinant PDE10a (rPDE10a) (Rattus norvegicus (Rat))	151 nM

Entry O=C(O)c1ccc(-c2cnc(N3CCOCC3)c3nc(/C=C/c4ccc5ccccc5n4)cn23)cc1F [Cpd 3] , IC50 reported as 9 nM

// sample O=C1NC(=O)C(c2ccc(-c3cnc(N4CCOCC4)c4nc(CCc5ccc6ccccc6n5)cn34)cc2)O1 (stereo not drawn) [Cpd 26, trifluoroacetic acid salt] , its IC50 was 8 nM

Lab book: IC50 of C(=C\c1cn2c(-c3ccc(N4CCNCC4)nc3)cnc(C3CCOCC3)c2n1)/c1ccc2ccccc2n1 [Cpd 80, trifluoroacetic acid salt] noted as 562 nM

Sure, the documented IC50 for O=C(O)CCC(=O)Nc1ccc(-c2cnc(N3CCOCC3)c3nc(/C=C/c4ccc5ccccc5n4)cn23)cc1 [Cpd 32] is 6 nM

IC50 reading for O=C1NC(=O)C(c2ccc(-c3cnc(N4CCOCC4)c4nc(/C=C/c5ccc6ccccc6n5)cn34)cc2)O1 (stereo not drawn) [Cpd 48] : 37 nM

Summary for this compound, O=C(O)c1ccc(-c2cnc(N3CCOCC3)c3nc(CCc4ccc5ccccc5n4)cn23)cc1 [Cpd 17, trifluoroacetic acid salt] : IC50 is 3 nM
